Target: NRAS Q61R (Homo sapiens (Human), UniProt P01111+P62937, Q61R)
Sequence (P01111 whole entry Q61R): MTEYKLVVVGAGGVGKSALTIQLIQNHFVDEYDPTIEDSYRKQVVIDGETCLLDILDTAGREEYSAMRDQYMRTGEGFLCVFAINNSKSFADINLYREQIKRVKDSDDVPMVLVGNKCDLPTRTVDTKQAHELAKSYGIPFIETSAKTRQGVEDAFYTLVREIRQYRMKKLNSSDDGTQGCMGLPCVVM
Sequence (P62937 whole entry): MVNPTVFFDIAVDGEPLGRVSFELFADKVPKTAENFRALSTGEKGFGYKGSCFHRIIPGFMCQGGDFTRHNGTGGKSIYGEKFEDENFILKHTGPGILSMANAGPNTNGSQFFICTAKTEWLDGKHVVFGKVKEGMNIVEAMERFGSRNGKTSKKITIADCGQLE
Test: Ras-Raf (BRAF RBD) disruption / FRET / MOA assay, NRAS Q61R
Format: biochemical
Conditions: NRAS Q61R; Ras-Raf disruption/FRET/MOA assay; read-out: IC50* NRAS Q61R FRET data
pIC50: −log10 of the molar value.
attribute measured: pIC50

Observe how each entry below is paired with its result.
{"compound": "C=CC(=O)N1CCO[C@@H]2CCN(C(=O)N(C)[C@H](C(=O)N[C@H]3Cc4nc(cs4)-c4ccc5c(c4)c(c(-c4cccnc4[C@H](C)OC)n5CC)CC(C)(C)COC(=O)[C@@H]4CCCN(N4)C3=O)C(C)C)CC21 (some centres unmarked) [Example A596]", "attribute measured": "pIC50", "result": "7.00 to 8.00"}
{"compound": "C=CC(=O)N1CCN(C(=O)N(C)[C@H](C(=O)N[C@H]2Cc3cc(O)cc(c3)-c3ccc4c(c3)c(c(-c3cccnc3[C@H](C)OC)n4CC)CC(C)(C)COC(=O)[C@@H]3CCCN(N3)C2=O)C(C)C)CC1 (atropisomer, axis not shown) [Example A262]", "attribute measured": "pIC50", "result": "6.00 to 7.00"}
{"compound": "CO[C@@H](C)c1ncccc1-c1c2c3cc(ccc3n1CC(F)(F)F)-c1csc(n1)C[C@H](NC(=O)[C@@H](COC1CN(C(=O)C#CC(C)(C)N(C)C)C1)C(C)C)C(=O)N1CCC[C@H](N1)C(=O)OCC(C)(C)C2 (atropisomer, axis not shown) [Example A343]", "attribute measured": "pIC50", "result": "5.00 to 6.00"}
{"compound": "C=CC(=O)N1CCOC2(CCN(C(=O)N(C)[C@H](C(=O)N[C@H]3Cc4cc(C(F)F)cc(n4)-c4ccc5c(c4)c(c(-c4cccnc4[C@H](C)OC)n5CC(F)(F)F)CC(C)(C)COC(=O)[C@@H]4CCCN(N4)C3=O)C(C)C)CC2)C1 (atropisomer, axis not shown) [Example A541]", "attribute measured": "pIC50", "result": "6.00 to 7.00"}
{"compound": "C=CC(=O)N1CC[C@]2(COCCN2C(=O)N(C)[C@H](C(=O)N[C@H]2Cc3nc(cs3)-c3ccc4c(c3)c(c(-c3cccnc3[C@H](C)OC)n4CC)CC(C)(C)COC(=O)[C@@H]3CCCN(N3)C2=O)C(C)C)C1 (atropisomer, axis not shown) [Example A676]", "attribute measured": "pIC50", "result": "6.00 to 7.00"}
{"compound": "CCn1c(-c2cccnc2[C@H](C)OC)c2c3cc(ccc31)-c1csc(n1)C[C@H](NC(=O)CCO[C@@H]1CCN(C(=O)C#CC(C)(C)N3CCC3)C1)C(=O)N1CCC[C@H](N1)C(=O)OCC(C)(C)C2 (atropisomer, axis not shown) [Example A366]", "attribute measured": "pIC50", "result": "5.00 to 6.00"}

Please look at the following compound next.
Tested on NRAS Q61R (Homo sapiens (Human), UniProt P01111+P62937, Q61R), the item CO[C@@H](C)c1ncccc1-c1c2c3cc(ccc3n1CC(F)(F)F)-c1nc(co1)C[C@H](NC(=O)[C@@H](COC1CN(C(=O)C#CC(C)(C)N(C)C)C1)C(C)C)C(=O)N1CCC[C@H](N1)C(=O)OCC(C)(C)C2 (atropisomer, axis not shown) [Example A674] showed pIC50 equal to < 5.00
